- Tested on: A549 cells
- TEST: MTT cytotoxicity assay
- SETTINGS: MTT, 24 h of compound treatment
OBSERVATION_TYPE: CC50
Respond with a number, then the unit of measure.

Sample CC1(C)CC[C@]2(C(=O)O)CC[C@]3(C)C(=CC[C@@H]4[C@@]5(C)CC[C@H](O)C(C)(C)[C@@H]5CC[C@]43C)[C@@H]2C1 ; CC50 observed: 67.4 µM

The measured values listed here are drawn from paper PMC7077228.
